From: ChEMBL document CHEMBL1156483

assay-overview: Stability of FKBP12 V2A mutant-YFP fusion protein expressed in NIH3T3 cells after 24 hrs by flow cytometry
Assay type: cell-based
endpoint-name: EC50 (nM)
Report as a plain number; the unit nM is understood.

Ask: Can you share its EC50? I mean this compound: CC[C@H](C(=O)N1CCCC[C@H]1C(=O)O[C@H](CCc1ccc(OC)c(OC)c1)c1cccc(OCCN2CCOCC2)c1)c1cc(OC)c(OC)c(OC)c1
Reply: 60

====

assay-overview: Displacement of fluorescein-SLF from FKBP12 L50A mutant-GST fusion protein by fluorescence polarization assay
endpoint-name: Kd
Write the numeric value and follow it with the unit.

Ask: Can you share its Kd? I mean this molecule: CC[C@H](C(=O)N1CCCC[C@H]1C(=O)O[C@H](CCc1ccc(OC)c(OC)c1)c1cccc(OCCN2CCOCC2)c1)c1cc(OC)c(OC)c(OC)c1
Reply: 3 nM
